target: recombinant human NAPRT (nicotinic acid phosphoribosyltransferase) (Homo sapiens); construct: dimer; assay: HPLC of NAMN formation, Michaelis-Menten fit
Sequence (Q6XQN6 whole entry): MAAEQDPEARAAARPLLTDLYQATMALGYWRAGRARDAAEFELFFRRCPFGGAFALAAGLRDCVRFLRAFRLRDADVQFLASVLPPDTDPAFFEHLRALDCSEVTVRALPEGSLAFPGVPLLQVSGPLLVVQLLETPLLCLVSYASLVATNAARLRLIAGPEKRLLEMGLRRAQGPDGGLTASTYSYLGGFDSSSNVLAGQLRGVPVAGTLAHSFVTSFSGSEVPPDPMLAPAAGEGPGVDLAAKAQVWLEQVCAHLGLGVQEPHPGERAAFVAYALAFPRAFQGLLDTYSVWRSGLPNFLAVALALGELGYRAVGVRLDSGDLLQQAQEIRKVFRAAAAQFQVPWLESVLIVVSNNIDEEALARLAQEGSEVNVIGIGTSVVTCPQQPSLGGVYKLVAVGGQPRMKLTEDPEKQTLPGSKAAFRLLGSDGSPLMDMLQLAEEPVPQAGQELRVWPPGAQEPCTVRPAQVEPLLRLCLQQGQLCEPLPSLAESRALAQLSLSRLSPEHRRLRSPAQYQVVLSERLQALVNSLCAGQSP
Metric name: Ki (µM)

INSERT INTO assay_data (cpd_smiles, measured_on, metric_name, observed_measurement) VALUES
  ('O=C(O)c1cnsn1', 'recombinant human NAPRT (nicotinic acid phosphoribosyltransferase) (Homo sapiens)', 'Ki', 295),
  ('O=C(N[C@@H](C(=O)c1ccccc1)n1cnccc1=O)c1ccccc1', 'recombinant human NAPRT (nicotinic acid phosphoribosyltransferase) (Homo sapiens)', 'Ki', 2280),
  ('O=C(O)c1cnccc1O', 'recombinant human NAPRT (nicotinic acid phosphoribosyltransferase) (Homo sapiens)', 'Ki', 308);
